assayDetails: chemical genetic growth profiling, strain panel (AID 1159580);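 further: tested at 20 µM; growth read once vehicle control cultures reached saturation at 30 °C; lower values mean less growth of the strain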
conditionSummary: S. cerevisiae deletion strains, growth OD, locus YDL101C, strain DUN1
The campaign covered roughly 5,500 compounds. About 2,000 (36%) were called active. Another 18% or so got no clear call; they are omitted. No stated cut-off is given here; in the data, active means normalized growth mostly below about 0.91 (no sharp cut-off); inconclusive means no clear call, values can overlap the other calls; inactive means mostly above about 0.92. This is one part of the list.
Select the matching outcome among active, inactive

1. Nc1ccccc1C(=O)N/N=C\c1cc(Br)ccc1O	inactive

Q: What call does the record list for O=C(Nc1ccccc1Sc1ccc([N+](=O)[O-])cc1[N+](=O)[O-])C(Cl)(Cl)Cl ?
A: inactive

Q: What call does the record list for COc1ccc2c(c1)c(CC(=O)O)c(C)n2C(=O)c1ccc(Cl)cc1 ?
A: inactive

Q: What call does the record list for O=C(N/N=C\c1cc(Br)ccc1O)c1ccccc1Oc1ccccc1 ?
A: inactive
